# Tested on: M14 melanoma
# assay_comment: NCI-60 one-dose screen, 48 h (100 = growth as untreated, 0 = no growth, -100 = all killed)
# condition_notes: 10 µM unless noted
This is part of a sample that, as a whole, favours compounds with a hit. Of some 83,000 tested, about 20% had one in any assay.
endpoint_name: growth (%)
Respond numerically; units are % and should not be typed.

Some solved entries appear below for comparison.
O=[N+]([O-])c1cccc(-c2nc3cc4nc5ccccc5[nH]c4cc3n2)c1 :: 103
Nc1ncnc2c1C(c1ccccc1)c1ccc3ccccc3c1O2 (centres undefined) :: 95.8
CSc1nc2ccccc2cc1/C=C1/C=C(c2ccccc2)NC1=O :: 66.8

The recorded growth for entry CC/C(=C(/c1ccc(Cl)cc1)c1ccc(OCCN(C)C)cc1)c1ccc(Cl)cc1 equals 88.1

The recorded growth for entry O=C(N/N=C/c1c(Cl)cccc1Cl)c1cccnc1Nc1cccc(C(F)(F)F)c1 equals 37.3

The recorded growth for entry O=C(Nc1cccc(-c2ccc(N3CCOCC3)nn2)c1)Nc1cccc(C(F)(F)F)c1 equals 63.1

The recorded growth for entry COc1ccc(C2=C(Nc3ccc(C(=O)Nc4ccccc4)cc3)C(=O)N(C)C2=O)cc1 equals 99.9

The recorded growth for entry O=C1/C=C/[C@@H](O)[C@@H]2C[C@@H](O)C[C@H]2/C=C/CCC[C@H](CCc2ccccc2)O1 equals 7.17

The recorded growth for entry Cn1c(I)c(C#CCO[Si](C)(C)C(C)(C)C)c(=O)[nH]c1=O equals 83.1

The recorded growth for entry Nc1ncnc2c1c(-c1cccc(Cl)c1)nn2CC(=O)N1CCOCC1 equals 104

Provenance of the data: PubChem BioAssay (NCI)
